# Species: Rattus norvegicus
# method-notes: DrugMatrix - Regimen: Daily Repeat
# Type: toxicity, organism-based, Sprague-Dawley
# Parameters: regimen Daily Repeat, gender Male, age 6-8 weeks
# measurement-context: in vivo, po, 0 mg/kg, 72 h, tissue Blood, route oral GAVAGE, dose level Control, time 3 day, vehicle 100 % WATER
measured-property: HEMOGLOBIN (G/DL)
Unit G/DL implied. Number only.

Examples with their reported HEMOGLOBIN follow.
[[record]]
molecule = "C[C@H]1c2cccc(O)c2C(=O)C2=C(O)[C@]3(O)C(=O)C(C(N)=O)=C(O)[C@@H](N(C)C)[C@@H]3[C@@H](O)[C@@H]21.O"
measured_property = "HEMOGLOBIN"
scale_unit = "G/DL"
reported_measurement = 13.83

[[record]]
molecule = "Cc1onc(-c2ccccc2Cl)c1C(=O)N[C@@H]1C(=O)N2[C@@H]1SC(C)(C)[C@@H]2C(=O)O"
measured_property = "HEMOGLOBIN"
scale_unit = "G/DL"
reported_measurement = 14.05

[[record]]
molecule = "CC(O)CO (centres undefined)"
measured_property = "HEMOGLOBIN"
scale_unit = "G/DL"
reported_measurement = 14.05


Switching to the query record.
Query COc1cc2nc(N3CCN(C(=O)C4COc5ccccc5O4)CC3)nc(N)c2cc1OC (centres undefined) yields HEMOGLOBIN of 13.83

###

# Organism: Rattus norvegicus
# method-notes: DrugMatrix - Regimen: Daily Repeat
# Assay type: toxicity, organism-based, Sprague-Dawley
# Set-up: regimen Daily Repeat, gender Male, age 6-8 weeks
# measurement-context: in vivo, po, 0 mg/kg, 72 h, tissue Blood, route oral GAVAGE, dose level Control, time 3 day, […]
measured-property: MONOCYTE (%)
Dear colleague, please return just the value in %, with no unit written.

[[record]]
compound = "Cc1noc(NS(=O)(=O)c2ccc(N)cc2)c1C [SULFISOXAZOLE]"
measured_property = "MONOCYTE"
scale_unit = "%"
reported_measurement = 1.5


Input Cc1ccc(-c2cc(C(F)(F)F)nn2-c2ccc(S(N)(=O)=O)cc2)cc1 [CELECOXIB] . Output MONOCYTE: 1.83

Measured MONOCYTE of Cc1oncc1C(=O)Nc1ccc(C(F)(F)F)cc1 [LEFLUNOMIDE] : 1.33

The recorded MONOCYTE for CC(C)C(=O)Nc1ccc([N+](=O)[O-])c(C(F)(F)F)c1 [FLUTAMIDE] is 0.67

Notebook: CCC(C)n1ncn(-c2ccc(N3CCN(c4ccc(OCC5COC(Cn6cncn6)(c6ccc(Cl)cc6Cl)O5)cc4)CC3)cc2)c1=O (stereo unspecified) [ITRACONAZOLE] , MONOCYTE read as 1.83

GET /value?item= O=NN(CCCl)C(=O)NC1CCCCC1 [LOMUSTINE] &field=MONOCYTE returns 1.5

###

# Organism: Rattus norvegicus
# method-notes: DrugMatrix - Regimen: Daily Repeat
# Type: toxicity, organism-based, Sprague-Dawley
# Set-up: regimen Daily Repeat, gender Male, age 6-8 weeks
# measurement-context: in vivo, iv, 0 mg/kg, 72 h, tissue Blood, dose level Control, time 3 day, vehicle 100 % SALINE
Starred links: 1 amine or outer side, 2 acyl side, 3 side chain; linkers in the order of their positions; H or OH if unused. Positions of bridges follow the written chain, without caps; N, C: chain ends. Non-standard residues stand in square brackets, D forms with d. Residues, ends and D or L forms follow the SMILES beside them. Chains are numbered I, II in the order given. Actinocin(9to1) = Cc1c2oc3c(C)ccc(C(=O)[*:1])c3nc-2c(C(=O)[*:2])c(N)c1=O; NMeV = CN[C@H](C(=O)O)C(C)C; Sar = CNCC(=O)O
measured-property: NEUTROPHIL (%)
Respond with the bare value in %.

Sample records with NEUTROPHIL:
[[record]]
compound = "COc1cc2c3cc1Oc1cc(ccc1O)C[C@@H]1c4c(cc(OC)c(O)c4Oc4ccc(cc4)C[C@@H]3N(C)CC2)CC[N+]1(C)C.[Cl-]"
reported_measurement = 9

[[record]]
compound = "CC[C@]1(O)C[C@H]2CN(CCc3c([nH]c4ccccc34)[C@@](C(=O)OC)(c3cc4c(cc3OC)N(C=O)[C@H]3[C@@](O)(C(=O)OC)[C@H](OC(C)=O)[C@]5(CC)C=CCN6CC[C@]43[C@@H]65)C2)C1"
reported_measurement = 8

[[record]]
compound = "Cc1c2oc3c(C)ccc(C(=O)N[C@@H]4C(=O)N[C@H](C(C)C)C(=O)N5CCC[C@H]5C(=O)N(C)CC(=O)N(C)[C@@H](C(C)C)C(=O)O[C@@H]4C)c3nc-2c(C(=O)N[C@@H]2C(=O)N[C@H](C(C)C)C(=O)N3CCC[C@H]3C(=O)N(C)CC(=O)N(C)[C@@H](C(C)C)C(=O)O[C@@H]2C)c(N)c1=O [DACTINOMYCIN] (I: T[dV]P[Sar][NMeV] / II: T[dV]P[Sar][NMeV]; ester I:1-I:C, II:1-II:C; linker I:N-II:N via Actinocin(9to1))"
reported_measurement = 9.17


Now take the following compound into account.
Sample Cc1ccc(N(CC2=NCCN2)c2cccc(O)c2)cc1 ; NEUTROPHIL observed: 10

###

# Species on record: Rattus norvegicus
# method-notes: DrugMatrix - Regimen: Daily Repeat
# Assay type: toxicity, organism-based, Sprague-Dawley
# Design: regimen Daily Repeat, gender Male, age 6-8 weeks
# measurement-context: in vivo, po, 0 mg/kg, 120 h, tissue Plasma, route oral GAVAGE, dose level Control, time 5 day, vehicle 100 % WATER
measured-property: CARBON DIOXIDE
Record the result as a number with its unit.

The examples below pair each entry with its known result.
[[record]]
compound = "C=CCC1(C(C)CCC)C(=O)NC(=O)NC1=O (stereo unspecified)"
reported_measurement = "31 mmol/L"

[[record]]
compound = "CC(O)CO (stereo unspecified)"
reported_measurement = "27.17 mmol/L"

[[record]]
compound = "Cc1onc(-c2ccccc2Cl)c1C(=O)N[C@@H]1C(=O)N2[C@@H]1SC(C)(C)[C@@H]2C(=O)O"
reported_measurement = "27.17 mmol/L"


Lookup result for Clc1cccc(Cl)c1N=C1NCCN1 ; measured CARBON DIOXIDE: 27.67 mmol/L

Given item CN(C)CCCN1c2ccccc2Sc2ccc(Cl)cc21 , the value recorded as its CARBON DIOXIDE is 27 mmol/L

GET /value?item= c1ccc([C@H]2CN3CCSC3=N2)cc1 &field=CARBON DIOXIDE returns 27.17 mmol/L

The recorded CARBON DIOXIDE for NCCCCCC(=O)O is 27.17 mmol/L

Reported CARBON DIOXIDE ( COc1cc2nc(N3CCN(C(=O)C4COc5ccccc5O4)CC3)nc(N)c2cc1OC (stereo unspecified) ) = 32.33 mmol/L

CARBON DIOXIDE for CNNCc1ccc(C(=O)NC(C)C)cc1 is 32 mmol/L

Documented CARBON DIOXIDE of N[C@@H](Cc1ccc(O)c(O)c1)C(=O)O : 32.33 mmol/L

CARBON DIOXIDE reading for C[C@H](CS)C(=O)N1CCC[C@H]1C(=O)O : 28.33 mmol/L

###

# Species on record: Rattus norvegicus
# method-notes: DrugMatrix - Regimen: Daily Repeat
# Assay type: toxicity, organism-based, Sprague-Dawley
# Parameters: regimen Daily Repeat, gender Male, age 6-8 weeks
# measurement-context: in vivo, po, 0 mg/kg, 120 h, tissue Blood, route oral GAVAGE, dose level Control, time 5 day, vehicle .5 % CMC
measured-property: HEMATOCRIT (%)
Number only, in %; omit the unit.

Record CCCCc1oc2ccccc2c1C(=O)c1cc(I)c(OCCN(CC)CC)c(I)c1 , field HEMATOCRIT: 40.02

Lab note: ClC(Cl)Br gave HEMATOCRIT of 33.17

HEMATOCRIT reading for O=C(CCCN1CC=C(n2c(=O)[nH]c3ccccc32)CC1)c1ccc(F)cc1 : 44.35

###

# Species: Rattus norvegicus
# method-notes: DrugMatrix - Regimen: Daily Repeat
# Format: toxicity, organism-based, Sprague-Dawley
# Set-up: regimen Daily Repeat, gender Male, age 6-8 weeks
# measurement-context: in vivo, po, 0 mg/kg, 72 h, tissue Plasma, route oral GAVAGE, dose level Control, time 3 day, […]
Known ALANINE AMINOTRANSFERASE of a selection of molecules
Report the value in u/L with no unit label.

The examples below pair each entry with its known result.
[[record]]
molecule = "CCOC(=O)C1=C(COCCN)NC(C)=C(C(=O)OC)C1c1ccccc1Cl (centres undefined)"
reported_measurement = 66.5

[[record]]
molecule = "Cc1oncc1C(=O)Nc1ccc(C(F)(F)F)cc1 [LEFLUNOMIDE]"
reported_measurement = 75.33

[[record]]
molecule = "O=NN(CCCl)C(=O)NC1CCCCC1"
reported_measurement = 66.5

[[record]]
molecule = "Cc1noc(NS(=O)(=O)c2ccc(N)cc2)c1C"
reported_measurement = 67.17

[[record]]
molecule = "CC(C)C(=O)Nc1ccc([N+](=O)[O-])c(C(F)(F)F)c1 [FLUTAMIDE]"
reported_measurement = 72


Query Cc1ccc(-c2cc(C(F)(F)F)nn2-c2ccc(S(N)(=O)=O)cc2)cc1 yields ALANINE AMINOTRANSFERASE of 76.83

Record summary for CCC(C)n1ncn(-c2ccc(N3CCN(c4ccc(OCC5COC(Cn6cncn6)(c6ccc(Cl)cc6Cl)O5)cc4)CC3)cc2)c1=O (centres undefined) : reported ALANINE AMINOTRANSFERASE = 76.83

# ALANINE AMINOTRANSFERASE of CC(C)(Oc1ccc(Cl)cc1)C(=O)O = 61.33
